# ASSAYED_TARGET: Carbonic anhydrase 9 (Homo sapiens)
pIC50: −log10 of the molar value.
MEASURED_ENDPOINT: pIC50

O=P(O)(O)C(NS(=O)(=O)c1ccccc1)P(=O)(O)O; 6.40

1. Cc1ccc(S(=O)(=O)NC(P(=O)(O)O)P(=O)(O)O)cc1
2. O=[N+]([O-])c1ccc(-c2ccc(S(=O)(=O)NC(P(=O)(O)O)P(=O)(O)O)cc2)cc1
3. O=[N+]([O-])c1cccc(S(=O)(=O)NC(P(=O)(O)O)P(=O)(O)O)c1
4. COc1ccc(-c2ccc(S(=O)(=O)NC(P(=O)(O)O)P(=O)(O)O)cc2)cc1
Exam item: Write the entries in order, lowest recorded pIC50 first. Give me the labels in the order the question wants.
Marked response: 3, 2, 1, 4
(3: 5.57, 2: 6.22, 1: 6.70, 4: 7.08)
